Target: SARS-CoV-2 3CL protease (Severe acute respiratory syndrome coronavirus 2)
Experiment: biochemical
Settings: 50% SARS-CoV-2 3CL protease inhibitory concentration, given as class symbols; read-out: IC50
reported.endpoint: IC50

compound="Cc1cncc(-n2c(=O)nc(Nc3cc4cn(C)nc4cc3Cl)n(Cc3cc(C#N)c(F)cn3)c2=O)c1 [II-0535]" reported_endpoint=IC50 test_result="< 0.1 µM"
compound="Cc1cncc(-n2c(=O)nc(Nc3cc4oc(C)nc4cc3F)n(Cc3ccc(F)c(C#N)c3)c2=O)c1 [II-0107]" reported_endpoint=IC50 test_result="< 0.1 µM"
compound="Cc1nc2cc(Cl)c(Nc3nc(=O)n(Cc4ncn(C)n4)c(=O)n3Cc3cc(F)c(F)cc3F)cc2o1 [II-0326]" reported_endpoint=IC50 test_result="< 0.1 µM"
compound="Cn1cnc(Cn2c(=O)nc(Nc3cc4cn(C)nc4cc3Cl)n(Cc3ccc(F)cc3Br)c2=O)n1 [II-0218]" reported_endpoint=IC50 test_result="< 0.1 µM"
compound="COc1ccc(Nc2nc(=O)n(Cc3ccc[nH]c3=O)c(=O)n2CC2CCCCC2)cc1 [Compound I-0134]" reported_endpoint=IC50 test_result="1 to 10 µM"
compound="Cc1cncc(-n2c(=O)nc(Nc3ccc4nc(NCC(F)(F)F)sc4c3)n(Cc3ccc(F)c(C#N)c3)c2=O)c1 [II-0298]" reported_endpoint=IC50 test_result="< 0.1 µM"
compound="COc1ccc(Nc2nc(=O)n(Cc3ccc(C)[nH]c3=O)c(=O)n2Cc2cc(F)c(F)c(F)c2)cc1 [Compound I-0358]" reported_endpoint=IC50 test_result="0.1 to 1 µM"
compound="CN(C)C(=O)c1ccc(Cn2c(=O)nc(Nc3cc4c(cc3Cl)OCC4)n(Cc3cc(F)c(F)c(F)c3)c2=O)c(=O)[nH]1 [Compound I-0064]" reported_endpoint=IC50 test_result="< 0.1 µM"
compound="Cc1c2cc(Nc3nc(=O)n(-c4cncc(Cl)c4)c(=O)n3Cc3ccc(F)c(C#N)c3)ccc2nn1C [II-0267]" reported_endpoint=IC50 test_result="< 0.1 µM"
compound="Cc1cncc(-n2c(=O)nc(Nc3cc4c(cc3Cl)nc(C)n4C)n(Cc3ccc(F)c(C#N)c3)c2=O)c1 [II-0350]" reported_endpoint=IC50 test_result="< 0.1 µM"
compound="Cn1cc2cc(Nc3nc(=O)n(Cc4cc(Cl)c[nH]c4=O)c(=O)n3Cc3cc(F)c(F)c(F)c3)c(Cl)cc2n1 [Compound I-0077]" reported_endpoint=IC50 test_result="< 0.1 µM"
compound="Cc1cncc(-n2c(=O)nc(Nc3cc4c(cc3F)nc(C)n4C)n(Cc3cc(F)c(F)c(F)c3)c2=O)c1 [II-0360]" reported_endpoint=IC50 test_result="< 0.1 µM"
compound="Cn1cc2cc(Nc3nc(=O)n(-c4cncc(Cl)c4)c(=O)n3Cc3cc(C#N)c(F)cn3)c(Cl)cc2n1 [II-0538]" reported_endpoint=IC50 test_result="< 0.1 µM"
compound="CC(C)n1cc2cc(Nc3nc(=O)n(Cc4cccnc4O)c(=O)n3Cc3cc(F)c(F)c(F)c3)c(Cl)cc2n1 [Compound I-0366]" reported_endpoint=IC50 test_result="< 0.1 µM"
compound="Cc1cncc(-n2c(=O)nc(Nc3cc4sc(C)nc4cc3C)n(Cc3ccc(F)c(C#N)c3)c2=O)c1 [II-0191]" reported_endpoint=IC50 test_result="< 0.1 µM"
